Catalogue of self-splicing fitness (ln) readings, one per entry.
test: self-splicing fitness, log relative to wild type (ln ratio); higher = more splicing; Tetrahymena group I intron in knt gene, E. coli kanamycin selection, DiMSum; sequences stand for … in CUCUCU…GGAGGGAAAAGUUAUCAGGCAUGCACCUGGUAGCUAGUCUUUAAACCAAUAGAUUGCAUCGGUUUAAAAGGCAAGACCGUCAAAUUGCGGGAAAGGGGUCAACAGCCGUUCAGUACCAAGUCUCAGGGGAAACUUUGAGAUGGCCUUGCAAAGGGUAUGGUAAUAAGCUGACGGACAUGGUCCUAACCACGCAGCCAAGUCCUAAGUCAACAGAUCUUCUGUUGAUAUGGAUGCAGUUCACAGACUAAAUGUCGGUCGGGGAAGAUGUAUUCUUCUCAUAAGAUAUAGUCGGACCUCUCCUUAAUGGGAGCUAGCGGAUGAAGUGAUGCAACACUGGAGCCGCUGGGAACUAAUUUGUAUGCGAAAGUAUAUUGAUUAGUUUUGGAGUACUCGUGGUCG; conditions: 30 °C;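 note: selection with 25 µg/mL kanamycin versus none on LB agar overnight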
Response field accepts a number only; no unit should be typed.

# annotated cases, reported self-splicing fitness (ln) shown
GGUUAGCAAUAUUACGGCUC; -2.05
AUUUAGCAAUAUUACGUUUA; -1.97
AUCGAGCAAUAUUACGUCAU; -2.35
AGCAAGCAAUAUUACGACCU; 0.278
GCGUAGCAAUAUUACGUCGC; -2.62

Read the next record carefully.
In: For the sequence shown here, AUCCAGCAAUAUUACGGGGA , give the reported self-splicing fitness (ln).
Out: -1.4
